Test system: MCF7 breast
Assay: NCI-60 one-dose screen, 48 h (100 = growth as untreated, 0 = no growth, -100 = all killed)
Conditions: 10 µM unless noted
This is part of a sample that, as a whole, favours compounds with a hit. Of some 83,000 tested, about 20% had one in any assay.
Can you tell me growth for the items I'm about to list?
Express it in %; write the number only.

Asked: Please give the measured growth for this compound: `CCCCCCNC(=O)Oc1ccc(/C(=C(/C)c2ccc(Cl)cc2)c2ccc(OCCN3CCCCCC3)cc2)cc1`
Given back: 15.7

Asked: Please give the measured growth for this compound: `COc1ccc([C@@H]2C(=O)N(c3cc(OC)c(OC)c(OC)c3)[C@H]2c2ccc(OC)c(O)c2)cc1`
Given back: 10.6

Asked: Please give the measured growth for this compound: `Cn1cc(-c2cc3ncnc(Nc4ccc(CC(=O)Nc5nc(C(C)(C)C)cs5)cc4)c3s2)cn1`
Given back: 41.8

Asked: Please give the measured growth for this compound: `CC1(C)CC[C@]2(C(=O)NCCCCCCN(CCCN)CCCN)CC[C@]3(C)C(=CC[C@@H]4[C@@]5(C)CC[C@H](O)C(C)(C)[C@@H]5CC[C@]43C)[C@@H]2C1`
Given back: 93.4

Asked: Please give the measured growth for this compound: `Cc1ccc(Nc2nc(SC(C)C)nc(-c3ccccc3)c2C#N)cc1`
Given back: 92.3

Asked: Please give the measured growth for this compound: `CN1CCN(c2ccc(Nc3nc(NCCCNS(=O)(=O)c4ccccc4)c4sccc4n3)cc2)CC1`
Given back: 35.5

Asked: Please give the measured growth for this compound: `COc1ccc2c(c1)c(-c1nc(N)nnc1-c1c[nH]c3ccccc13)cn2C`
Given back: 15

Asked: Please give the measured growth for this compound: `CCN(CC)CCOc1ccc(C(=C(c2ccccc2)C2CCCC2)c2ccc(OCCN(CC)CC)cc2)cc1`
Given back: -57.3

Asked: Please give the measured growth for this compound: `O=C(CCCCCCN1CC(=O)N2[C@@H](c3cccs3)c3[nH]c4ccccc4c3C[C@H]2C1=O)NO`
Given back: 52.1

Asked: Please give the measured growth for this compound: `CCCCCc1ccc(S(=O)(=O)Nc2cc(-c3csc(N)n3)ccc2OC)cc1`
Given back: 66.1

Asked: Please give the measured growth for this compound: `O=C(CSc1nnc(-c2ccc(Cl)cc2)n1-c1ccccc1)Nc1ccccc1Cl`
Given back: 66.4

----------
Test system: MDA-MB-435 melanoma
Assay: NCI-60 one-dose screen, 48 h (100 = growth as untreated, 0 = no growth, -100 = all killed)
Conditions: 10 µM unless noted
This is part of a sample that, as a whole, favours compounds with a hit. Of some 83,000 tested, about 20% had one in any assay.
Can you tell me growth for the items I'm about to list?
Express it in %; write the number only.

Asked: Please give the measured growth for this compound: `N#Cc1c(-c2cccs2)cc(-c2cnccn2)nc1SCC(=O)N/N=C/c1ccc(Cl)cc1`
Given back: 103

Asked: Please give the measured growth for this compound: `CC(=O)c1c([Si](C)(C)C)c2cc(C#N)ccn2c1C(=O)c1ccc(Br)cc1`
Given back: 92.5

Asked: Please give the measured growth for this compound: `O=C(COc1ccc(/C=C2\C(=O)Nc3ccc(Cl)cc32)cc1)Nc1ccc(Cl)cc1`
Given back: 55.6

Asked: Please give the measured growth for this compound: `COc1cc2cc(Oc3ccc(NC(=O)Nc4ccc(F)c(C(F)(F)F)c4)cc3)c(C)nc2cc1OCCN(C)C`
Given back: 98.2

Asked: Please give the measured growth for this compound: `COc1ccc(/C=N/NC(=O)c2c(N)nn(C)c2Nc2ccccc2)cc1Oc1ccccc1`
Given back: 101

Asked: Please give the measured growth for this compound: NS(=O)(=O)c1ccc(Nc2nc(Nc3ccccc3)nc(N3N=C(c4ccc(Cl)cc4)CC3c3ccc(Cl)cc3)n2)cc1 (stereo not given)
Given back: 39.1

Asked: Please give the measured growth for this compound: `Cc1cc2nc(C(Cl)Cl)nc(-c3ccc(S(=O)(=O)N(C)C)cc3)n2n1`
Given back: 47

Asked: Please give the measured growth for this compound: `O=C1Nc2ccc(F)cc2/C1=C\C(=O)c1ccc(NS(=O)(=O)c2ccccc2)cc1`
Given back: 92.5

Asked: Please give the measured growth for this compound: `Cc1ccc(CSC2=C(Cl)CN(c3ccc(Cl)cc3)C2=O)cc1`
Given back: 103

Asked: Please give the measured growth for this compound: `Brc1ccc(-c2cc(-c3ccc4c(c3)OC=CO4)n[nH]2)s1`
Given back: 15.3

Asked: Please give the measured growth for this compound: `O=C(CSc1nc2ccccc2c(=O)n1-c1ccccc1)N/N=C/c1ccc(Oc2ccc(Cl)cc2)cc1`
Given back: 84.6

Asked: Please give the measured growth for this compound: `CC(=O)Nc1ccccc1-c1nc2ccccc2s1`
Given back: 98.8

Asked: Please give the measured growth for this compound: `C#C[C@]1(O)CC[C@H]2[C@@H]3CC=C4c5sc(Nc6cc(C)cc(C)c6)nc5CC[C@]4(C)[C@H]3CC[C@@]21C`
Given back: 20.7

Asked: Please give the measured growth for this compound: `O=C(CSc1nc2ccccc2c(=O)n1CCc1ccccc1)Nc1ccc(S(=O)(=O)Nc2ccc(Cl)nn2)cc1`
Given back: 99.8

Asked: Please give the measured growth for this compound: `Cn1c2nc3ccccc3c-2cc2ccccc21`
Given back: 39.5

Asked: Please give the measured growth for this compound: `Cc1ccccc1Nc1nc(SC(C)C)nc(-c2ccccc2)c1C#N`
Given back: 44.9

Asked: Please give the measured growth for this compound: `NC1CC2(CCN(c3cnc(C(=O)Nc4cc(F)cc5cccnc45)cn3)CC2)C1`
Given back: 70.9

Asked: Please give the measured growth for this compound: O=S1SC(c2ccccc2)=NN1c1cc(F)cc(F)c1 (stereo not given)
Given back: 63.3

Asked: Please give the measured growth for this compound: `CC(=C(c1ccc(OCCN(C)C)cc1)c1ccc(OCCN(C)C)cc1)c1ccc(Cl)cc1`
Given back: -82.8

Asked: Please give the measured growth for this compound: `CCN(CC)CCOc1ccc(C(=C(c2ccccc2)C2CCCC2)c2ccc(OCCN(CC)CC)cc2)cc1`
Given back: -10
